Test system: extracellular Aβ42
experiment-description: Extracellular Aβ42 ELISA capture assay in N2a-AβPP695 cell supernatants
Type: cell-based
test-settings: N2a-AβPP695, compound alone, various concentrations, 18 h
readout-kind: effect on extracellular Aβ42 level/production

These recorded examples may help you get a feel for the data.
{"compound": "CN(C)c1ncnc2nc[nH]c12", "result": "inactive"}
{"compound": "C[C@H](N[C@@H](CCc1ccccc1)C(=O)O)C(=O)N1Cc2ccccc2C[C@H]1C(=O)O", "result": "no effects"}
{"compound": "C[C@H](CS)C(=O)N1CCC[C@H]1C(=O)O", "result": "no effects"}
{"compound": "CC(C)C[C@H](NP(=O)(O)O[C@@H]1O[C@@H](C)[C@H](O)[C@@H](O)[C@H]1O)C(=O)N[C@@H](Cc1c[nH]c2ccccc12)C(=O)O", "result": "no effects"}
{"compound": "CN(Cc1ccccc1)c1nc(N)nc2[nH]cnc12", "result": "inactive"}

input: Look up and state reported effect on extracellular Aβ42 level/production for O=C(O)CNC(=O)C(CS)Cc1ccccc1 (stereo not drawn)
output: no effects

* * *

System: N2a-AβPP695
experiment-description: Cell viability, MTS assay, N2a-AβPP695
Assay type: cell-based
test-settings: read-out: IC50, cell viability (MTS assay); N2a-AβPP695, viability assessed 24 h later
What pIC50 was measured for each of the following?
One number for each entry, as −log10 of the molar value.

{"molecule": "CCC(CO)Nc1nc(N(C)Cc2ccccc2)c2ncn(C(C)C)c2n1 (centres unmarked)", "pIC50": 4.05}

Now take the following molecule into account.
input: Kindly indicate its recorded pIC50. Item: CC[C@H](CO)Nc1nc(N(C)c2ccccc2)c2ncn(C(C)C)c2n1
output: 3.82
